Tested on: COLO205 cells
methodSummary: CellTiter-Glo cell viability assay, proliferation of COLO205 cells
Format: cell-based, Human
experimentalContext: Homo sapiens, COLO 205, 72 h; COLO205, 3 days incubation, second assay; read-out: COLO205(nM) IC50 Second assay
measuredProperty: IC50 (nM)
Entry rule: numbers only, all in nM.

Entry `O=C(O)/C=C\C(=O)O.O=c1[nH]c([C@@H]2CC3CCN2CC3)nc2c3c(sc12)-c1cn[nH]c1CCC3` ; IC50 = 14.7

###

measuredTarget: CDC7/DBF4 kinase (Homo sapiens)
Sequence (O00311 whole entry): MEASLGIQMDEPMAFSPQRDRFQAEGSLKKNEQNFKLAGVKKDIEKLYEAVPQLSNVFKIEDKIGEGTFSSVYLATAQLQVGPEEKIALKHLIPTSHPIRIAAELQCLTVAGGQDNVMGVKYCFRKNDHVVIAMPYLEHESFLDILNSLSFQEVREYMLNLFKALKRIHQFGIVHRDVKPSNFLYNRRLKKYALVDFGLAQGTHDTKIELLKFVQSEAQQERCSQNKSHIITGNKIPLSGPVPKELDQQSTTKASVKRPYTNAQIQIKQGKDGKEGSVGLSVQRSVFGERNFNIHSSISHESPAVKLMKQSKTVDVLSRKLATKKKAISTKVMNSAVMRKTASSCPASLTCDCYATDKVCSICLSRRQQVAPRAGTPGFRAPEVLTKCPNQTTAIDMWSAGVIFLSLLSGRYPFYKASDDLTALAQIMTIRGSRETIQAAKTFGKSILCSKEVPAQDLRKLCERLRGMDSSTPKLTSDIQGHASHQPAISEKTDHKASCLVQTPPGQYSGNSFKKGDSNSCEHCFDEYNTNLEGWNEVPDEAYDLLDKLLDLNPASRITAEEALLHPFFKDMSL
Sequence (Q9UBU7 whole entry partner): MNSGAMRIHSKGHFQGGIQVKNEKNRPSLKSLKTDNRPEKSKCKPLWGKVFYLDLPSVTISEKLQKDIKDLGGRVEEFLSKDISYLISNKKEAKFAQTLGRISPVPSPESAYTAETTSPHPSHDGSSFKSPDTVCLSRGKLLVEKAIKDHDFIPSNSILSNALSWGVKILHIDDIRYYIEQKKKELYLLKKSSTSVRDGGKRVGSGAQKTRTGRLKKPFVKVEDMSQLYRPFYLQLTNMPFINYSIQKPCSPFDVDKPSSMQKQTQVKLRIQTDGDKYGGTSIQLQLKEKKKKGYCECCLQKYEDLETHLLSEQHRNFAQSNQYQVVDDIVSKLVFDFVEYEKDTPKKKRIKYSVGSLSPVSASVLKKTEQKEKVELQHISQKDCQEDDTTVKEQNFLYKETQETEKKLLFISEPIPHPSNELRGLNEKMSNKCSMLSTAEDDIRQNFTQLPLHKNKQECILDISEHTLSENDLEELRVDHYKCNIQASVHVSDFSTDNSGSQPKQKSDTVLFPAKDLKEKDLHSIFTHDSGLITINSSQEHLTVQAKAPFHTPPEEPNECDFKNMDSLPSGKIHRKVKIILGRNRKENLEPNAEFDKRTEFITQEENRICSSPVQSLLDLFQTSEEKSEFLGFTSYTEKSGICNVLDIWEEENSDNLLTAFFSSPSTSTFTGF
methodSummary: ADP-Glo kinase assay, inhibition of CDC7/DBF4 kinase activity
Type: biochemical
experimentalContext: CDC7/DBF4, 10 μM ATP, second assay; read-out: IC50 (nM) Second assay
measuredProperty: IC50 (nM)
Entry rule: numbers only, all in nM.

Entry `O=C(O)/C=C\C(=O)O.O=c1[nH]c([C@@H]2CC3CCN2CC3)nc2c3c(sc12)-c1cn[nH]c1CCC3` ; IC50 = 2.35
